The values you see were collected from ChEMBL document CHEMBL3885861.

- Species on record: Rattus norvegicus
- protocol_description: Open TG-GATES - Regimen: Single
- Type: toxicity, organism-based, Sprague-Dawley
- Parameters: regimen Single, gender Male, age 6 weeks
- conditions_used: in vivo, po, 0 mg/kg, 24 h, tissue Plasma, route gavage, dose level Control
measured_quantity: BUN (mg/dL)
Answers are plain numbers, in mg/dL.

Record BUN per entry; entries follow.
1. CC/C(=C(\c1ccccc1)c1ccc(OCCN(C)C)cc1)c1ccccc1 [TAMOXIFEN]
2. C[C@@H]1C[C@H]2[C@@H]3CCC4=CC(=O)C=C[C@]4(C)[C@@]3(F)[C@@H](O)C[C@]2(C)[C@@]1(O)C(=O)CO [DEXAMETHASONE]
3. CN1C(=O)CN=C(c2ccccc2)c2cc(Cl)ccc21 [DIAZEPAM]
4. CN(C)CCCN1c2ccccc2CCc2ccc(Cl)cc21 [CLOMIPRAMINE]
5. Cc1ccc(C)c(OCCCC(C)(C)C(=O)O)c1 [GEMFIBROZIL]
6. CCOc1ccc(NC(=O)CC(C)O)cc1 (centres undefined) [BUCETIN]

1. 14.6
2. 15.8
3. 15.2
4. 14
5. 16.2
6. 14.6

Give me BUN for each of these compounds, listed below.
1. CC1=C(/C=C/C(C)=C/C=C/C(C)=C/CO)C(C)(C)CCC1 [RETINOL]
2. CN(C)CCN(Cc1cccs1)c1ccccn1
3. COC1=CC(=O)C[C@@H](C)[C@]12Oc1c(Cl)c(OC)cc(OC)c1C2=O [GRISEOFULVIN]

1: 17.6; 2: 16.8; 3: 16

----------
- Species on record: Rattus norvegicus
- protocol_description: Open TG-GATES - Regimen: Single
- Type: toxicity, organism-based, Sprague-Dawley
- Set-up: regimen Single, gender Male, age 6 weeks
- conditions_used: in vivo, po, 0 mg/kg, 24 h, tissue Plasma, route gavage, dose level Control
measured_quantity: RALB (g/dL)
Give bare numbers, in g/dL.

The examples below pair each entry with its known result.
compound	RALB (g/dL)
C[C@@H]1C[C@H]2[C@@H]3CCC4=CC(=O)C=C[C@]4(C)[C@@]3(F)[C@@H](O)C[C@]2(C)[C@@]1(O)C(=O)CO	3.9
O=C(CCCN1CCC(O)(c2ccc(Cl)cc2)CC1)c1ccc(F)cc1	3.7
CN1C(=O)CN=C(c2ccccc2)c2cc(Cl)ccc21	3.9

Go through the items and report each one's RALB.
1. CC1=C(/C=C/C(C)=C/C=C/C(C)=C/CO)C(C)(C)CCC1
2. CN(C)CCCN1c2ccccc2CCc2ccccc21
3. CCOC(=O)CCC(=O)O[C@H]1[C@H](O[C@@H]2[C@@H](C)[C@H](O[C@H]3C[C@@](C)(OC)[C@@H](O)[C@H](C)O3)[C@@H](C)C(=O)O[C@H](CC)[C@@](C)(O)[C@H](O)[C@@H](C)C(=O)[C@H](C)C[C@@]2(C)O)O[C@H](C)C[C@@H]1N(C)C [ERYTHROMYCIN ETHYLSUCCINATE]
4. COC1=CC(=O)C[C@@H](C)[C@]12Oc1c(Cl)c(OC)cc(OC)c1C2=O
5. CN(C)CCCN1c2ccccc2CCc2ccc(Cl)cc21
6. CC(C)OC(=O)C(C)(C)Oc1ccc(C(=O)c2ccc(Cl)cc2)cc1 [FENOFIBRATE]

3.1
2.6
3
3.4
2.6
2.6
